Test system: EKVX NSCLC
Test: NCI-60 one-dose screen, 48 h
Settings: 10 µM unless noted
The panel holds about 83,000 compounds, 20% with a hit somewhere; the sample as a whole holds those more often. Activity calls are given as the source filed them. Rule for the calls: active = growth percent below 10; inactive = the rest.
Field 'call' accepts active, inactive

// known answers, use as guide
1) CCN1C(=O)/C(=N\N=C(/C)c2ccc3c(c2)Nc2ccccc2S3)c2cc(Cl)ccc21 | inactive
2) Cn1cc(-c2cc(N)n3nc(-c4cn(C)c5ncc(Br)cc45)cc3n2)c2cc(Br)cnc21 | inactive
3) C=C1CC[C@@H]2[C@]3(C)COC(c4cn[nH]c4-c4cccc(Br)c4)O[C@@H]3CC[C@@]2(C)[C@@H]1C/C=C1/C(=O)OCC1O (some centres undefined) | active

# lookup: test call for O=C(COc1ccc(NC(=O)Nc2ccc(Cl)cc2)cc1)N/N=C/c1ccccc1
active

# lookup: test call for CC1=C(C(=O)c2ccccc2)C(c2ccc(-n3cncn3)cc2)n2c(nc3ccccc32)N1 (centres undefined)
inactive

# lookup: test call for CC(=O)c1cccc(NC(=O)CCC(=O)NS(=O)(=O)c2ccc(C)cc2)c1
inactive
